# System: NCI-H322M lung
# assay: NCI-60 one-dose screen, 48 h (100 = growth as untreated, 0 = no growth, -100 = all killed)
# measurement setup: 10 µM
# Experimental: Growth inhibition of the NCI-H322M human Non-Small Cell Lung tumor cell line is measured as a screen for anti-cancer activity. Cells are grown in 96 well plates and exposed to the test compound for 48 hours. Compounds are tested at a single concentration, which is 10^-5 M for most compounds. The reported endpoint is percent growth (GI% or GIPRCNT), where numbers from 0 - 100% represent growth inhibition, and numbers from -100% - 0 represent cell death. […]
The panel holds about 83,000 compounds, 20% with a hit somewhere; the sample as a whole holds those more often.
Reported values of growth for individual entries
# unit: % | format: bare number

In plain terms, `Clc1ccc(-c2nnc(-c3cccc4ccccc34)o2)cc1` has a documented growth of 112

In plain terms, `O=c1[nH]nc(SC2CCCCC2)c(=O)[nH]1` has a documented growth of 96.8

In plain terms, COc1ccc(C2OC(N)=C(O)C2=O)cc1OC (stereo not drawn) has a documented growth of 102

In plain terms, `COc1cc(C(N)=O)cc(OC)c1OC` has a documented growth of 106

In plain terms, `Cc1ccc(S(=O)(=O)O)c(C)c1` has a documented growth of 96.7

In plain terms, O=S(=O)(O)CC(O)CN1CCN(CCO)CC1 (stereo not drawn) has a documented growth of 112

----------
# System: OVCAR-5 ovarian
# assay: NCI-60 one-dose screen, 48 h (100 = growth as untreated, 0 = no growth, -100 = all killed)
# measurement setup: 10 µM
# Protocol: Growth inhibition of the OVCAR-5 human tumor cell line is measured as a screen for anti-cancer activity. Cells are grown in 96 well plates and exposed to the test compound for 48 hours. Compounds are tested at a single concentration, which is 10^-5 M for most compounds. The reported endpoint is percent growth (GI% or GIPRCNT), where numbers from 0 - 100% represent growth inhibition, and numbers from -100% - 0 represent cell death. For example, a value of 40 represents 60% growth inhibition. […]
The panel holds about 83,000 compounds, 20% with a hit somewhere; the sample as a whole holds those more often.
property label: growth (%)
# unit: % | format: bare number

Check out these entries, answers already filled in.
CCOC(=O)c1[nH]c(C)c(C(C)=O)c1C = 88
O=C(c1ccc(O)cc1)c1ccc(O)cc1 = 105
COC(=O)Nc1nc2ccc(C(=O)c3cccs3)cc2[nH]1 = 42.4
O=[N+]([O-])c1ccc(S(=O)(=O)NN=C2CCCCC2)cc1 = 114
Cc1cc(C(C)(C)C)cc(C)c1Br = 105
CC(CC(=O)c1ccccc1)c1ccccc1 (stereo not drawn) = 113
CC1=NN(c2ccccc2)C(=O)/C1=C\N1CC(=O)NC1=S = 119
CC(=O)Cc1cc(-c2cc(CC(C)=O)[nH]n2)n[nH]1 = 90.2

In plain terms, `CCOC(=O)CCCS(C)(=O)=O` has a documented growth of 97.4

In plain terms, `CC1=C(/C=C/C(C)=C/C=C/C(C)=C/CO)C(C)(C)CCC1` has a documented growth of 108

In plain terms, `C=CC[N+](C)(C)C` has a documented growth of 102

In plain terms, `C=CCOC(=O)C(=O)OCC=C` has a documented growth of 97.5

In plain terms, `Cc1cc(C)c(CC(=O)O)c(C)c1` has a documented growth of 103

----------
# Test system: UACC-62 melanoma
# assay: NCI-60 one-dose screen, 48 h
# measurement setup: 10 µM unless noted
Compounds without any hit were thinned out: in the full panel of roughly 83,000, 20% have a hit. Active and inactive are the calls of the source. The calls were made as follows: active = growth percent below 10; inactive = the rest.
Respond only with the outcome that fits, drawn from true = active, false = inactive

Cc1ccccc1N=C(c1ccccc1)C1C(=O)c2ccccc2C1=O = false

I would be grateful if you could indicate the recorded call for `O=c1cc(-c2ccccc2)oc2c1ccc1ccccc12` .
false

I would be grateful if you could indicate the recorded call for `Cc1ccc(/C=C2\SC(=S)N(c3ccc(F)cc3)C2=O)o1` .
false

I would be grateful if you could indicate the recorded call for `N/N=C(/Cc1ccccc1)NNC(N)=S` .
false

I would be grateful if you could indicate the recorded call for `COc1cc(/C=C/C(=O)c2ccccc2)cc(OC)c1OC` .
false

I would be grateful if you could indicate the recorded call for `O=C(O)CCCC(=O)O` .
false

----------
# Tested on: EKVX NSCLC
# assay: NCI-60 one-dose screen, 48 h (100 = growth as untreated, 0 = no growth, -100 = all killed)
# measurement setup: 10 µM
Compounds without any hit were thinned out: in the full panel of roughly 83,000, 20% have a hit.
property label: growth (%)
# unit: % | format: bare number

Check out these entries, answers already filled in.
S=C(Nc1ccccc1)N1CCCCC1 = 105
CC12CC3CC1C(C(=O)O2)C3C(=O)O (centres undefined) = 105

Per the reported EKVX NSCLC data, CC1C(=O)c2ccccc2CC1C(=O)O (centres undefined) has growth of 113

Per the reported EKVX NSCLC data, `O=c1cc(-c2ccccc2)oc2c1ccc1ccccc12` has growth of 80.1

Per the reported EKVX NSCLC data, `CCOC(=O)Nc1cc2c(c(N)n1)N=C(c1ccccc1)CO2` has growth of 33.4

Per the reported EKVX NSCLC data, `Nc1ccccc1C(=O)Nc1ccc(Cl)cc1Cl` has growth of 99.5

Per the reported EKVX NSCLC data, `CC(C)NC(=O)OCc1c(COC(=O)NC(C)C)c(-c2ccc(Cl)c(Cl)c2)n2c1SCC2` has growth of 62.4

Per the reported EKVX NSCLC data, `COCCCC/C(=N\OCCN)c1ccc(C(F)(F)F)cc1` has growth of 93.1

Per the reported EKVX NSCLC data, COC(=O)C(C)Oc1ccc(OC#N)cc1 (centres undefined) has growth of 99.8

Per the reported EKVX NSCLC data, `C=CCNc1ccccc1` has growth of 108

Per the reported EKVX NSCLC data, `c1csc(-c2cc(-c3cc(-c4cccs4)[nH]n3)n[nH]2)c1` has growth of 64.8

Per the reported EKVX NSCLC data, `Cc1cc2nc(CO)[nH]c2cc1C` has growth of 112

Per the reported EKVX NSCLC data, `COC(=O)c1cccnc1` has growth of 105

Per the reported EKVX NSCLC data, `N#CCc1ccc([N+](=O)[O-])cc1` has growth of 97.8

Per the reported EKVX NSCLC data, `COc1ccc(C2(O)CCCCC2)cc1` has growth of 105

----------
# System: SF-268 CNS
# assay: NCI-60 one-dose screen, 48 h (100 = growth as untreated, 0 = no growth, -100 = all killed)
# measurement setup: 10 µM
This is part of a sample that, as a whole, favours compounds with a hit. Of some 83,000 tested, about 20% had one in any assay.
Reported values of growth for individual entries
# unit: % | format: bare number

Cc1cc2nc(CC(=O)c3cccc([N+](=O)[O-])c3)c(=O)[nH]c2cc1C = 98.1
C/C(=C\c1ccc([N+](=O)[O-])cc1)C(=O)O = 105
CCCCOC(=O)c1ccc(C(C)C)cc1 = 100
COc1cc2c3cc1Oc1c(OC)c(OC)cc4c1C(Cc1ccc(O)c(c1)Oc1ccc(cc1)CC3N(C)CC2)N(C)CC4 (stereo unspecified) = 36.2
O=C(O)[C@@H]1[C@H]2C[C@H]3c4[nH]c5ccccc5c4CCN3C[C@@H]2CC[C@@H]1O = 107

Per the reported SF-268 CNS data, CC(CC(=O)c1ccccc1)c1ccccc1 (stereo unspecified) has growth of 110

Per the reported SF-268 CNS data, `Nc1ccc(NC(=O)c2cccc(N)c2)cc1` has growth of 102

Per the reported SF-268 CNS data, CN1C(=O)CN2CCc3ccccc3C2c2cc(Cl)ccc21 (stereo unspecified) has growth of 103

Per the reported SF-268 CNS data, c1cc[n+](C2c3ccccc3C([n+]3ccccc3)c3ccccc32)cc1 (stereo unspecified) has growth of 23

Per the reported SF-268 CNS data, `O=[N+]([O-])c1ccc(Cl)c(S(=O)(=O)O)c1` has growth of 105

Per the reported SF-268 CNS data, `CCOC(=O)C(CCC(C)C)C(=O)OCC` has growth of 92.5

----------
# Test system: NCI/ADR-RES ovarian
# assay: NCI-60 one-dose screen, 48 h
# measurement setup: 10 µM
# Description: Growth inhibition of the NCI/ADR-RES human […] tumor cell line is measured as a screen for anti-cancer activity. Cells are grown in 96 well plates and exposed to the test compound for 48 hours. Compounds are tested at a single concentration, which is 10^-5 M for most compounds. The reported endpoint is percent growth (GI% or GIPRCNT), where numbers from 0 - 100% represent growth inhibition, and numbers from -100% - 0 represent cell death. For example, a value of 40 represents 60% growth inhibition. […]
The panel holds about 83,000 compounds, 20% with a hit somewhere; the sample as a whole holds those more often. Active and inactive are the calls of the source. How the source made its calls: active means growth percent below 10; inactive means the rest.
Respond only with the outcome that fits, drawn from active, inactive

Known results for molecules:
O=C1C[C@H](c2ccccc2)[C@H](c2ccccc2)C1 = inactive
CC(CC(=O)c1ccccc1)c1ccccc1 (configuration not stated) = inactive
CCOc1ccc(I)cc1 = inactive

I would be grateful if you could indicate the recorded call for `O=C(O)[C@@H]1[C@H]2C[C@H]3c4[nH]c5ccccc5c4CCN3C[C@@H]2CC[C@@H]1O` .
inactive

I would be grateful if you could indicate the recorded call for `NCCC(=O)c1ccc(Cl)cc1` .
inactive

Cited source for all entries: PubChem BioAssay (NCI)
